# targetOrSystem: recombinant human TFPI (tissue factor pathway inhibitor) (human, UniProt P10646 29-304)
# testName: cell-based or functional assay
attributeMeasured: A405, TF/FVIIa/FX complex assay, Ab 25 nM

{"binder": "clone 3203 (antibody, V domains shown) VH: EVQLVESGGGLVKPGGSLRLSCAASGFTFSSYAMSWVRQAPGKGLEWVSTITTGGSYTYYADSVEGRFTISRDNAKNSLYLQMNSLRAEDTAVYYCARQDGNFLMDYWGQGTLVTVSS VL: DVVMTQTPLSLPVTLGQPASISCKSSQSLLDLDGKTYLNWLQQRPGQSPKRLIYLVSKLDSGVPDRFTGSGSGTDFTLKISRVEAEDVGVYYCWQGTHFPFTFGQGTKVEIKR", "quantitativeResult": 0.424}
{"binder": "clone 3241 (antibody, V domains shown, scFv on yeast at selection; human IgG4/kappa IgG as purified; also called No. 3241 antibody) VH: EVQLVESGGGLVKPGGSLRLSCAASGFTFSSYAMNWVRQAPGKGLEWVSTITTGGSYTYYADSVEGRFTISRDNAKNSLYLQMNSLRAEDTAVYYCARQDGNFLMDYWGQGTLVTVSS VL: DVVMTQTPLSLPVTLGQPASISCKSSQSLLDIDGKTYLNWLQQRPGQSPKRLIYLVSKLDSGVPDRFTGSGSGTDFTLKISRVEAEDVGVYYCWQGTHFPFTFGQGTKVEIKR", "quantitativeResult": 0.911}
{"binder": "clone 1023 (antibody, V domains shown, scFv on yeast at selection; human IgG4/kappa IgG as purified) VH: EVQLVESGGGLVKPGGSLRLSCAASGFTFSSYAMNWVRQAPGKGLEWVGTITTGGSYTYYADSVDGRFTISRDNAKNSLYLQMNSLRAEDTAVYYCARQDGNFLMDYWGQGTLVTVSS VL: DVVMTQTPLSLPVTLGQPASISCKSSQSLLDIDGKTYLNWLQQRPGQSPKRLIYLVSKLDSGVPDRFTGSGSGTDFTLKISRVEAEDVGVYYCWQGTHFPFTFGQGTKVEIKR", "quantitativeResult": 0.914}
{"binder": "clone A67 (antibody, V domains shown) VH: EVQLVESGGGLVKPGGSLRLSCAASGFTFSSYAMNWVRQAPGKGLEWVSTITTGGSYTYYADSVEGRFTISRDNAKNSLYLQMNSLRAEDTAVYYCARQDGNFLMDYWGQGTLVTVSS VL: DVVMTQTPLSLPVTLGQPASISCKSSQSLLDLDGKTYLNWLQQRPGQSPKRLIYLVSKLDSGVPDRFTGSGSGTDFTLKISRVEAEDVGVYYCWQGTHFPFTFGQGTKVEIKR", "quantitativeResult": 0.908}
